- TARGET_UNDER_TEST: T1, recombinant human CD123-Fc (human, UniProt P26951 19-305)
- T1 construct: not shown: Fc part of CD123-Fc
- T1 sequence: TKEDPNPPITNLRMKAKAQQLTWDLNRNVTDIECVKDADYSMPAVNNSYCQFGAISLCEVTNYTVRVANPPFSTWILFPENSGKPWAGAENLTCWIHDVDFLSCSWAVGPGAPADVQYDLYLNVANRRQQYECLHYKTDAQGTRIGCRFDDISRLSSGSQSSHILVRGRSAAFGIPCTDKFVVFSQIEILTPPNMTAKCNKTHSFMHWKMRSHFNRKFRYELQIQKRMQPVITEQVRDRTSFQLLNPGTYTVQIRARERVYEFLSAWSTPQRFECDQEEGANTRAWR
- EXPERIMENT_DESCRIPTION: phage ELISA, captured CD123-Fc
If the reported ELISA_avg equals or exceeds 5 ratio A450 target/IgG1-Fc, assign MET. If not, assign NOT MET.

Examples from the recorded data:
Say whether SEQ ID NO: 362 (designed binder, D domain, on phage) MGSWVEFDQRLGAIWDRLVALGGSEAELAAFEKEIAAFESELQAYKGKGNPEVEHLRQGAAVIRDDLQAYRHN shows ELISA_avg of 5 ratio A450 target/IgG1-Fc or more.
MET

Is ELISA_avg at least 5 ratio A450 target/IgG1-Fc? Consider SEQ ID NO: 565 (designed binder, D domain, on phage) MGSWFEFDQRLDAITFRLWALGGSEAELAEFEDVIALFEYHLQDYKGKGNPEVEALEVEAWAIFHELGAYRHN
NOT MET

Is ELISA_avg at least 5 ratio A450 target/IgG1-Fc? Consider SEQ ID NO: 440 (designed binder, D domain, on phage) MGSWILFKDDLAWIKETLEALGGSEAELAFFEDNIADFEEQLQGYKGKGNPEVEALRKEAAAIRDELQAYRHN
MET

Assess whether reported ELISA_avg for SEQ ID NO: 620 (designed binder, D domain, on phage) MGSWNEFVIRLFAIDDRLYALGGSEAELAWFEDEIATFEYELQRYKGKGNPEVEALEYEAEAIVSELFAYRHN sits at 5 ratio A450 target/IgG1-Fc or higher.
NOT MET

Could you verify whether the entry SEQ ID NO: 560 (designed binder, D domain, on phage) MGSWVEFIMRLDAIYERLDALGGSEAELAEFEWHIADFEDHLQWYKGKGNPEVEALFEEADAIWEELWAYRHN shows ELISA_avg of no less than 5 ratio A450 target/IgG1-Fc?
MET

More entries:
Does ELISA_avg meet or surpass 5 ratio A450 target/IgG1-Fc for SEQ ID NO: 466 (designed binder, D domain, on phage) MGSWIFFKEQLAIIKWELEALGGSEAELAWFEDDIAAFEDDLQFYKGQGNPEVEALRKEAAAIRDELQAYRHN ?
MET

In plain terms: is recorded ELISA_avg at least 5 ratio A450 target/IgG1-Fc for SEQ ID NO: 587 (designed binder, D domain, on phage) MGSWIEFEDRLDAITDRLWALGGSEAELAEFEHQIAFFEEDLQWYKGKGNPEVEALHMEAEAIMEELGAYRHN ?
MET

Please indicate if the recorded ELISA_avg for SEQ ID NO: 435 (designed binder, D domain, on phage) MGSWHFFKDDLAWIKNELEALGGSEAELAMFEDDIAMFETMLQSYKGKGNPEVEALRKEAAAIRDELQAYRHN meets or exceeds 5 ratio A450 target/IgG1-Fc.
NOT MET

State whether the measured ELISA_avg reaches 5 ratio A450 target/IgG1-Fc, counting equality as reaching it, for SEQ ID NO: 366 (designed binder, D domain, on phage) MGSWVEFWDRLDAIEGRLWALGGSEAELAAFEKEIAAFESELQAYKGKGNPEVEDLRWLAAEIRADLQAYRHN
NOT MET
